Values compiled from PubChem BioAssay (NCATS).

- testProtocol: Cell Viability - LYMP2-022 (AID 987);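 note: cells exposed to compound for 24 hr; nearly all actives have a fitted effect of over 55% in size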
- assaySetup: LYMP2-022 lymphoblastoid cell viability; series mostly up to 92.2 µM
Records with an inconclusive call do not appear. Active and inactive are the calls of the source. Calls come from the whole dose curve; as a rule, active = well fitted cell-killing curve with a large enough effect; inconclusive = small, poorly fitted or top-dose-only effect; inactive = flat fitted curve, though single readings scatter.
Outcomes: t for active, f for inactive

INSERT INTO measurements (entrysmiles, discretelabel) VALUES
  ('O=c1c(O)c(-c2ccc(O)cc2)oc2cc(O)cc(O)c12', 'f'),
  ('CC1=C(/C=C/C(C)=C/C=C/C(C)=C/C(=O)Nc2ccc(O)cc2)C(C)(C)CCC1', 't'),
  ('CCCNC(=O)NS(=O)(=O)c1ccc(Cl)cc1', 'f'),
  ('CC(=O)O[C@]1(C(C)=O)CC[C@H]2[C@@H]3C=C(Cl)C4=CC(=O)[C@@H]5C[C@@H]5[C@]4(C)[C@H]3CC[C@@]21C', 'f'),
  ('O=C1NC(=O)C(c2ccccc2)(c2ccccc2)N1', 'f');

----------
- testProtocol: qHTS for differential inhibitors of proliferation of Plasmodium falciparum line 3D7 (AID 1876); note: potency is the fitted concentration of half-maximal effect
- assaySetup: P. falciparum 3D7 proliferation inhibition; series mostly up to 28.7 µM
Records with an inconclusive call do not appear. The source made the active and inactive calls. Calls follow the shape of the dose curve; as a rule, active = well fitted curve in the direction sought with a large enough effect; inconclusive = small, poorly fitted or top-dose-only effect, or another doubt; inactive = no such curve, though single readings can be large or run the other way.
measurementKind: Potency

INSERT INTO results (molecule, measurementkind, resultvalue) VALUES
  ('CCCNC(=O)NS(=O)(=O)c1ccc(Cl)cc1', 'Potency', 'inactive'),
  ('O=C1NC(=O)C(c2ccccc2)(c2ccccc2)N1', 'Potency', 'inactive'),
  ('CC(=O)N[C@@H](CS)C(=O)O', 'Potency', 'inactive'),
  ('O=c1cc(-c2ccc(O)cc2)oc2cc(O)cc(O)c12', 'Potency', '12.6 µM (active)'),
  ('O=c1c(-c2ccc(O)cc2)coc2cc(O)ccc12', 'Potency', 'inactive'),
  ('CCCCC1C(=O)N(c2ccccc2)N(c2ccccc2)C1=O', 'Potency', '11.2 µM (active)'),
  ('Cc1cccc(C)c1OCC(C)N (stereo not drawn)', 'Potency', 'inactive'),
  ('CC/C(=C(\c1ccccc1)c1ccc(OCCN(C)C)cc1)c1ccccc1', 'Potency', '11.2 µM (active)'),
  ('CC(=O)c1ccc(S(=O)(=O)NC(=O)NC2CCCCC2)cc1', 'Potency', 'inactive'),
  ('COc1ccccc1N1CCN(CCCNc2cc(=O)n(C)c(=O)n2C)CC1', 'Potency', '10 µM (active)'),
  ('CN(C)CCC(c1ccccc1)c1ccccn1 (stereo not drawn)', 'Potency', 'inactive'),
  ('CCN1CCC[C@H]1CNC(=O)c1cc(S(N)(=O)=O)ccc1OC', 'Potency', 'inactive'),
  ('CC(=O)CCCCn1c(=O)c2c(ncn2C)n(C)c1=O', 'Potency', 'inactive');

----------
- System: KB-3-1
- testProtocol: Cytotoxic Profiling of Annotated Libraries Using Quantitative High-Throughput Screening (AID 1296008); note: % is set by controls: 0 for no effect and ±100 for the full control effect; nearly all actives have a fitted effect of over 60% in size
- assaySetup: Five cell lines viability, CellTiter-Glo ATP luminescence, 48-72 h; active compounds read low
Records with an inconclusive call do not appear.
Reported max response values for the following compounds.
measurementKind: max response (%)

INSERT INTO measurements (compound, displayunit, resultvalue) VALUES
  ('Cc1ccc(C(C)(O)c2nc3ccccc3s2)c(C)c1 (configuration not stated)', '%', 4.83),
  ('NC(=O)c1cccc(-c2cc(Nc3ccc(OC(F)(F)F)cc3)ncn2)c1', '%', -13.5),
  ('CNC(=O)c1ccc2cc(C3(O)CCn4cncc43)ccc2c1 (configuration not stated)', '%', -2.71),
  ('COc1ccc(-n2c(C)c([N+](=O)[O-])c3ccc(O)cc32)cc1', '%', -1.9),
  ('CCc1ccc(C=C2SC(=S)NC2=O)cc1', '%', -5.67),
  ('NC1CCC(Nc2nc(Nc3ccc(C(=O)N4CCCCC4)cc3)c3ncn(-c4cccc(F)c4)c3n2)CC1 (configuration not stated)', '%', -2.33),
  ('Cn1cc(C=C2C(=O)Nc3cccnc32)c2ccccc21', '%', 5.23),
  ('Cc1c[nH]c(C=C2C(=O)Nc3ccccc32)c1CCC(=O)O', '%', -13.5),
  ('O=C(O)c1cc(O)c2c(c1)C(=O)c1cccc(O)c1C2=O', '%', 0.608),
  ('C=C1C(=O)OC(CCCCCCCC)C1C(=O)O (configuration not stated)', '%', -17.3),
  ('COc1cc(O)c2c(c1)C(=O)c1cc(C)cc(O)c1C2=O', '%', -1.03),
  ('COc1ccc2c(Oc3ccc(NC(=O)c4c(C)n(CC(C)(C)O)n(-c5ccccc5)c4=O)cc3F)ccnc2c1', '%', -19.2),
  ('O=C1NC(=O)C(c2ccccc2)(c2ccccc2)N1', '%', 7.95),
  ('O=c1cc(-c2ccccc2)oc2cc(O)c(O)c(O)c12', '%', -0.922),
  ('COc1ccc(C2CC(c3ccccc3)=NN2c2ccc(S(N)(=O)=O)cc2)cc1 (configuration not stated)', '%', -15.8),
  ('CC=CC(=O)N(CC)c1ccccc1C', '%', 2.01),
  ('NC(N)=Nc1nc(CSCC/C(N)=N/S(N)(=O)=O)cs1', '%', 30.2),
  ('CCOC(=O)C1=C(N)Oc2ccc(Br)cc2C1C(C#N)C(=O)OCC (configuration not stated)', '%', -1.43),
  ('CC(C)=CC[C@@H](O)C1=CC(=O)c2c(O)ccc(O)c2C1=O', '%', 6.3),
  ('CON=C(C(=O)N[C@@H]1C(=O)N2C(C(=O)OCOC(=O)C(C)(C)C)=C(C=Cc3scnc3C)CS[C@H]12)c1csc(N)n1', '%', 0.86),
  ('O=C(N[C@@H](c1ccccc1)[C@@H]1CCCCN1)c1cccc(C(F)(F)F)c1Cl', '%', -7.93),
  ('CC(=O)OC1C(C)OC(Oc2c(-c3ccc(O)cc3)oc3cc(O)cc(O)c3c2=O)C(O)C1OC(C)=O (configuration not stated)', '%', 7.1);
